# Test target: Carboxy-terminal domain RNA polymerase II polypeptide A small phosphatase 1 (Homo sapiens, UniProt Q9GZU7)
# Sequence (Q9GZU7 whole entry): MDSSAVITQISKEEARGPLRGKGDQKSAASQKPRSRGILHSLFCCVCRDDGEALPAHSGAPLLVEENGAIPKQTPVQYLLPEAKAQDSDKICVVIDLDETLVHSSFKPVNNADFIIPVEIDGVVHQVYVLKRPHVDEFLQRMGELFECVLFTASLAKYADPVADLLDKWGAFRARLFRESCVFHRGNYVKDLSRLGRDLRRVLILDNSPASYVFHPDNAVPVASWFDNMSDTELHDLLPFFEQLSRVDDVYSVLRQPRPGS
# Experiment: CTDSP1 inhibitors, concentration-response, biochemical, absorbance readout, ultra-high-throughput screen actives (AID 540297)
# Assay type: functional
Activity calls are given as the source filed them. Rule as the data show it: actives have a measured IC50 and inactives only a lower limit.
Quantity kind: IC50

Example entries and their recorded answers appear below.
INSERT INTO results (compound, quantity_kind, endpoint_result) VALUES
  ('COc1cc(NC(=O)c2ccc3c(c2)C(=O)N(CCC(C)C)C3=O)c(C(=O)O)cc1OC', 'IC50', '7.04 µM (active)'),
  ('O=C(CSc1nc2sc3c(c2c(=O)n1-c1ccccc1)CCCC3)N/N=C/c1ccccc1C(=O)O', 'IC50', '9.27 µM (active)'),
  ('Cc1ccc(C(=O)NNC(=O)CSc2n[nH]c3c4cc(F)ccc4nc-3n2)cc1', 'IC50', '5.22 µM (active)');

Let us move to another entry and its IC50.
Prompt: What does the record list as IC50 for O=C1NC2c3c(Cl)sc(Cl)c3C(=O)C2O1 (centres undefined) ?
Completion: 3.75 µM (active)

====

Observed IC50, system Glyceraldehyde-3-phosphate dehydrogenase (Homo sapiens, UniProt P04406).

Prompt: // fetch Glyceraldehyde-3-phosphate dehydrogenase (Homo sapiens, UniProt P04406) IC50 for "O=S(=O)(Nc1cccnc1)c1cc(Cl)cc(Cl)c1O"
Completion: > 100 µM (not active)

Prompt: // fetch Glyceraldehyde-3-phosphate dehydrogenase (Homo sapiens, UniProt P04406) IC50 for "O=C1C(Cl)=C(N2CCN(c3ncccn3)CC2)C(=O)N1c1ccc(Cl)c(Cl)c1"
Completion: > 100 µM (not active)

Prompt: // fetch Glyceraldehyde-3-phosphate dehydrogenase (Homo sapiens, UniProt P04406) IC50 for "O=C1C(Cl)=C(N2CCN(c3ccccc3)CC2)C(=O)N1c1ccnc(Cl)c1"
Completion: > 50 µM (inconclusive)

Prompt: // fetch Glyceraldehyde-3-phosphate dehydrogenase (Homo sapiens, UniProt P04406) IC50 for "c1cncc(-c2cncnc2)c1"
Completion: > 100 µM (not active)

Prompt: // fetch Glyceraldehyde-3-phosphate dehydrogenase (Homo sapiens, UniProt P04406) IC50 for "Cc1cccc(N2C(=O)C(Cl)=C(N3CCN(CCO)CC3)C2=O)c1"
Completion: > 100 µM (not active)

Prompt: // fetch Glyceraldehyde-3-phosphate dehydrogenase (Homo sapiens, UniProt P04406) IC50 for "Cc1ccc(N2C(=O)C(Cl)=C(N3CCN(Cc4ccc5c(c4)OCO5)CC3)C2=O)cc1"
Completion: > 50 µM (inconclusive)

Prompt: // fetch Glyceraldehyde-3-phosphate dehydrogenase (Homo sapiens, UniProt P04406) IC50 for "CS(=O)(=O)c1nc(-c2ccccc2)cc(-c2ccccc2)n1"
Completion: > 100 µM (not active)

Prompt: // fetch Glyceraldehyde-3-phosphate dehydrogenase (Homo sapiens, UniProt P04406) IC50 for "O=C1C(Cl)=C(Nc2ccccc2)C(=O)N1c1ccc(Cl)c(Cl)c1"
Completion: > 100 µM (not active)

Values were extracted from ChEMBL document CHEMBL1201862.
